- System: HOP-62
- assay.protocol: NCI tumour cell line growth inhibition, 48 h
Counter-ions that a name gives are not always drawn. The source made the active and inactive calls. Cut-off read from the data, not from the text of the source: active = GI50 up to about 1.1 µM and inactive = higher.
Please reply with one of these outcomes: true = active, false = inactive

compound | qualitative.label
CCCCCCc1cc2cc(-c3csc(-c4ccc(OC)cc4)n3)c(=O)oc2cc1O | false
CC(CN1c2ccccc2Sc2ccccc21)N(C)C (stereo not drawn) [PROMETHAZINE HYDROCHLORIDE] | false
Cc1c2cc[n+](C)cc2c(C)c2c1[nH]c1ccc(OC(C)(C)C)cc12 | false

Hi team, can someone confirm the assay call for O=C(Cc1ccccc1)Nc1nc2ccc(Cl)cc2c2nc(-c3ccco3)nn12 ?
false

For N#CC(C#N)=Cc1ccc(Oc2ccccc2)cc1 , what call appears in the results of this test?
false

Can you look up the reported call for OC[P+](CO)(CO)C12CC3CC(CC(C3)C1)C2 for me?
false

Could you kindly confirm the outcome this assay logged for COc1ccc(N2C(=O)C(Cl)C2c2cc3cc(Br)ccc3nc2Cl)cc1 (stereo not drawn) ?
false

Can you look up the reported call for O=[N+]([O-])c1ccc(Sc2c3ccccc3nc3ccccc23)cn1 for me?
false

What did the test return for CN(C)c1cccc(/C=C(\C#N)c2ccccc2)c1 ?
true

Query: recorded result category for O=C1Cc2c([nH]c3cc(Br)ccc23)-c2ccccc2N1 in this test
false

Tell me the assay call for CC(=O)OC1COC(N2CCc3ccccc32)C(OC(C)=O)C1OC(C)=O (stereo not drawn) please.
false

Tell me the recorded outcome of this test for NC(=S)NNC(=O)CCC(=O)Nc1ccc(Cl)cc1Cl .
false

State the result this test recorded for C=CC(C)CCC(C/C=C(\C)CCCC(C)C)C(=C)CCCC(C)C (stereo not drawn) .
false

Name the outcome recorded for CC(C)(C)c1ccc(C(C)(C)C)c(N2C(=O)C3ON=C(c4ccc([N+](=O)[O-])cc4)C3C2=O)c1 (stereo not drawn) in the assay.
false

Please share the test call associated with CCCNC(=O)NNC(=O)c1c[nH]c2nc(C)ccc2c1=O .
false

What call does the record list for c1ccc(-c2ccc(-c3ccc(C4=NCCN4)cc3)o2)cc1 ?
false

Which outcome did this test record for the compound N=C(N)NS(=O)(=O)c1ccc(NCc2c3ccccc3nc3ccccc23)cc1 ?
true

Please let me know the test result on file for COCCOCN(C(=O)C1=CCC2(CC1)OCCO2)c1ccccc1I .
false
